Tested on: SF-539 CNS
Assay: NCI-60 one-dose screen, 48 h
Conditions: 10 µM unless noted
Compounds without any hit were thinned out: in the full panel of roughly 83,000, 20% have a hit. Active and inactive are the calls of the source. The calls were made as follows: active = growth percent below 10; inactive = the rest.
Hello, when you answer, please use one of the following outcomes: true (1) (active), false (0) (inactive)

Exercise: I would be grateful if you could indicate the recorded call for CN1C(=O)N(C)C2Nn3c(s/c(=C\c4ccccc4)c3=O)=NC21 (centres undefined) .
Key: false (0)

Exercise: Next: CCCC1CCC(O)(C(C)(O)C(=O)NC2C(=O)N3NCCCC3C(=O)N(O)C(C)C(=O)N3NCCCC3C(=O)N3NCC(O)CC3C(=O)NC(C)C(=O)OC2C(C)C)OC1CC (centres undefined)
Key: true (1)

Exercise: Next: O=C(N/N=C/c1c(Cl)cccc1Cl)c1ccc(C(F)(F)F)nc1Nc1cccc(C(F)(F)F)c1
Key: true (1)

Exercise: Next: C=C1C(=O)O[C@H]2[C@H]1CC/C(COC(=O)NCCOCCOCC(=O)Nc1ccc(OC)c(C(N)=O)c1O)=C\CC[C@@]1(C)O[C@@H]21
Key: false (0)

Exercise: Next: c1ccc2c(-c3nc(-c4c[nH]c5ccncc45)cs3)c[nH]c2c1
Key: false (0)

Exercise: Next: CCCCCCCCCCCCCCCCCCOc1ccc(CC(=O)OCC[N+]2(C)CCCCC2)cc1
Key: false (0)

Exercise: Next: COc1ccc2cc(C(C)C(=O)Nc3ccc(-c4n[nH]c(=S)n4C4CCCCC4)cc3)ccc2c1 (centres undefined)
Key: false (0)

Exercise: Next: O=C(O)c1cn(C2CC2)c2cc(N3CCN(C(=O)Nc4nc(-c5ccc(Cl)cc5)cs4)CC3)c(F)cc2c1=O
Key: false (0)

Exercise: Next: CCCCCCn1c(-c2ccc(C(=O)O/N=C(\N)c3ccc4ccccc4c3)cc2)nc(-c2ccccc2)c1-c1ccccc1
Key: false (0)

Exercise: Next: O=C(O)C(c1ccccc1)N1C(=O)CSC1=S (centres undefined)
Key: false (0)

Exercise: Next: O=C1c2cccc3cccc(c23)C(=O)N1N1C(=O)c2cccc3c(NC4CCCCC4)ccc(c23)C1=O
Key: false (0)

Exercise: Next: COc1ccc2sc3c(NCCCNCCO)nc4ccccc4c3c(=O)c2c1
Key: false (0)

Exercise: Next: COc1ccc(C2C(N)=NNC2c2cccc(O)c2)cc1 (centres undefined)
Key: false (0)

Exercise: Next: CCCCOc1ccc(/C=N/NC(N)=S)cc1
Key: false (0)

Exercise: Next: [O-][n+]1c2ccccc2[n+]([O-])c2c3ccccc3[nH]c21
Key: false (0)

Exercise: Next: COc1ccc(OC)c(/C=C2\Oc3cc(OCCN4CCC(Cc5ccccc5)CC4)ccc3C2=O)c1
Key: false (0)

Exercise: Next: Cc1ccc(C(=O)NCCNc2nccc(-c3c(-c4cccc(F)c4)nc4sccn34)n2)cc1
Key: false (0)

Exercise: Next: COc1ccc(N2C(=O)C(Oc3ccccc3)C2c2ccc(C)cc2)cc1 (centres undefined)
Key: false (0)

Exercise: Next: CCCCCCNC(=O)Oc1ccc(/C(=C(\C)c2ccc(Cl)cc2)c2ccc(OCCN(CC)CC)cc2)cc1
Key: false (0)
